read-out: Early growth response protein 1 (EGR1) transcription factor, EGR1 (gene 1958); assay: LTEA_HepaRG_EGR1: Life Technologies and Expression Analysis (LTEA) Assay for Early growth response protein 1 (EGR1) transcription factor using HepaRG (AID 2283490); settings: mRNA level, 48 h; actives raise or lower the signal
The source made the active and inactive calls. How the source made its calls: active means hit-call score of the fitted dose curve at least 0.9, where 1 is the maximum; inactive means score below 0.9.
Labels: 1 (active), 0 (inactive)

# COMPOUND, QUALITATIVE_LABEL
data = [
    ("CC1COC(Cn2cncn2)(c2ccc(Oc3ccc(Cl)cc3)cc2Cl)O1 (centres undefined)", 1),
    ("COP(=S)(OC)Oc1nc(Cl)c(Cl)cc1Cl", 0),
    ("COC(=O)N(OC)c1ccccc1COc1ccn(-c2ccc(Cl)cc2)n1", 0),
    ("Oc1ccccc1-c1ccccc1", 0),
]
